Is glass transition temperature at least 300 °C? Then Satisfied. If not, Not satisfied.

Compound | Label
*c1ccc2c(c1)C(=O)N(c1ccc(Oc3cc(C(C)(C)C)c(Oc4ccc(N5C(=O)c6ccc(C(*)(C(F)(F)F)C(F)(F)F)cc6C5=O)cc4)cc3C(C)(C)C)cc1)C2=O (repeat unit) | Not satisfied
*Oc1ccc(C2(c3ccc(Oc4ccc5c(=O)n6c7cc(-c8ccc9c(c8)nc8c%10ccc(*)c%11cccc(c(=O)n98)c%11%10)ccc7nc6c6cccc4c56)cc3)c3ccccc3-c3ccccc32)cc1 (repeat unit) | Satisfied
*c1cccc(P(=O)(c2ccccc2)c2cccc(-n3c(=O)c4c(-c5ccc(C(F)(F)F)cc5)c5c(=O)n(*)c(=O)c5c(-c5ccc(C(F)(F)F)cc5)c4c3=O)c2)c1 (repeat unit) | Satisfied
*CC(*)(CC(=O)Oc1ccc(OCCCCCCC)cc1)C(=O)Oc1ccc(OCCCCCCC)cc1 (repeat unit) | Not satisfied
*Oc1ccc(C(C)(C)c2ccc(OC(=O)c3cccc(C(*)=O)c3)cc2)cc1 (repeat unit) [Poly(bisphenol A isophthalate)] | Not satisfied
*Oc1ccc(C(C)(C)c2ccc(OC(=O)OCCN(CCOC(*)=O)c3ccccc3)cc2)cc1 (repeat unit) | Not satisfied

---

// glass transition temperature lookup, one value per entry

Compound | glass transition temperature [°C]
*C([2H])([2H])C(*)([2H])c1c([2H])c([2H])c([2H])c([2H])c1[2H] (repeat unit) | 97.00
*c1cccc(NC(=O)c2ccc(OCCOCCOCCOCCOCCOc3ccc(C(=O)Nc4ccc5[nH]c(*)nc5c4)cc3)cc2)c1 (repeat unit) | 140.00
*Nc1cc(NC(=O)c2cccc(C(*)=O)c2)cc(C(=O)OCCOc2ccc(/C=C/C(=O)c3ccccc3)cc2)c1 (repeat unit) | 216.00
*CC(S*)c1ccccc1 (repeat unit) | -2.50
*C(=O)c1ccc2c(c1)C(=O)N(c1ccc(C)c(N3C(=O)c4ccc(*)cc4C3=O)c1)C2=O (repeat unit) | 317.2
*C(=O)c1ccc(-c2ccc(C(C)(C)c3ccc(-c4ccc(C(=O)c5ccc6c(c5)C(=O)N(c5ccc(Cc7ccc(N8C(=O)c9ccc(*)cc9C8=O)cc7)cc5)C6=O)cc4)cc3)cc2)cc1 (repeat unit) | 216.00
*c1ccc(-c2cc(C(C)(C)C)c(Oc3ccc(N4C(=O)c5ccc(Oc6ccc7c(c6)C(=O)N(*)C7=O)cc5C4=O)cc3)c(C(C)(C)C)c2)cc1 (repeat unit) | 342.00

---

Measurement Type: glass transition temperature

Molecule | Measured
*c1cc(OCCCCCCCCCCCCCCCC)cc(N2C(=O)c3ccc(Oc4ccc5c(c4)C(=O)N(*)C5=O)cc3C2=O)c1 (repeat unit) | 159.00 °C
*Oc1ccc(-c2ccc(OC(=O)Nc3cccc(P(=O)(c4ccccc4)c4cccc(NC(*)=O)c4)c3)cc2)cc1 (repeat unit) | 72.00 °C
*CC(COC(=O)O*)OCCCCCCCCCCCOc1ccc(/C=C/c2ccc([N+](=O)[O-])cc2)cc1 (repeat unit) | 21.00 °C
*Oc1ccc(C(=O)c2ccccc2)c(-c2cc(Oc3ccc(C(C)(C)c4ccc(*)cc4)cc3)ccc2C(=O)c2ccccc2)c1 (repeat unit) | 156.00 °C
*CCN(CCNC(=O)c1ccc2c(c1)C(=O)N(*)C2=O)c1ccc(/C=C/c2ccc([N+](=O)[O-])cc2)cc1 (repeat unit) | 142.00 °C
*c1ccc(Oc2ccc(S(=O)(=O)c3ccc(Oc4ccc(-c5c6c(c(*)c7ccccc57)C(=O)N(c5ccccc5-c5ccccc5)C6=O)cc4)cc3)cc2)cc1 (repeat unit) | 278.00 °C
